From: patent US8445691B2

Reported efficacy values follow for various compounds
- System: Sphaerotheca fuliginea
- protocol.summary: Sphaerotheca test (cucumber) / protective
- Format: in vivo
- settings: 500 ppm active ingredient, protective spray on young cucumber plants, evaluation 7 days after inoculation; 0% = control, 100% = no infection
observed.property: efficacy (%)

1. CC(C)(C)C(O)(CSc1ccc(I)cc1)c1cncs1 (centres unmarked) [Compound 2] ... 95
2. CC(C)(C)C(O)(CSc1ccc(C(F)(F)F)cc1)c1cncs1 (centres unmarked) [Compound 57] ... 80
3. CC(C)(C)C(O)(CSc1ccc(Cl)cc1Cl)c1cncs1 (centres unmarked) [Compound 11] ... 80
4. CC1(C(O)(CSc2ccc(I)cc2)c2cncs2)CCCCC1 (centres unmarked) [Compound 13] ... 89
5. CC(C)C(O)(CSc1ccc(I)cc1)c1cncs1 (centres unmarked) [Compound 6] ... 80

* * *

- protocol.summary: logP by reversed-phase HPLC (EEC Directive 79/831 Annex V.A8)
- Assay type: physicochemical
- settings: method [a]: LC-MS, acidic range pH 2.7, 0.1% aqueous formic acid / acetonitrile, linear gradient 10% to 95% acetonitrile, C18 reversed phase
observed.property: logP

1. CC(C)(C)C(O)(CSc1cccc(C(F)(F)F)c1)c1cncs1 (centres unmarked) [Compound 61] ... log p 3.74^[a]
2. CC(C)(C)C(O)(CSc1cccc(Br)c1)c1cncs1 (centres unmarked) [Compound 20] ... log p 3.74^[a]
